Could you please report measured drug sensitivity score for the items listed next?
- Tested on: SK-BR-3
- Method Notes: drug sensitivity score (DSS), CellTiter-Blue viability (DSS (AUC-based score)); higher = stronger viability inhibition; extreme values may be limits of the assay
- Stated Conditions: incubation time: 72 h
One number for each entry.

Recorded results for 5 compounds are shown here.
Compound: O=NN(CCCl)C(=O)NC1CCCCC1
Measured On: SK-BR-3
drug sensitivity score: 0
//
Compound: CO[C@H]1C[C@@H]2CC[C@@H](C)[C@@](O)(O2)C(=O)C(=O)N2CCCC[C@H]2C(=O)O[C@H]([C@H](C)C[C@@H]2CC[C@@H](O)[C@H](OC)C2)CC(=O)[C@H](C)/C=C(\C)[C@@H](O)[C@@H](OC)C(=O)[C@H](C)C[C@H](C)/C=C/C=C/C=C/1C
Measured On: SK-BR-3
drug sensitivity score: 15.4
//
Compound: CCN(CC)CCOc1ccc(C(=C(Cl)c2ccccc2)c2ccccc2)cc1
Measured On: SK-BR-3
drug sensitivity score: 0
//
Compound: Cn1nnc2c(C(N)=O)ncn2c1=O [Temozolomide]
Measured On: SK-BR-3
drug sensitivity score: 0
//
Compound: Nc1nc(Cl)nc2c1ncn2[C@@H]1O[C@H](CO)[C@@H](O)[C@@H]1F
Measured On: SK-BR-3
drug sensitivity score: 15.3

Working through the 3 compounds below one at a time, give drug sensitivity score for each.
1. CN1CCN(c2nc(C3=C(c4c[nH]c5ccccc45)C(=O)NC3=O)c3ccccc3n2)CC1
2. C[C@@H](C(=O)O)c1ccc(-c2ccccc2)c(F)c1
3. CC(C)C(=O)Nc1ccc([N+](=O)[O-])c(C(F)(F)F)c1 [Flutamide]

# output
[0, 0, 0]

====

- Test system: CAL-148
- Method Notes: normalised viability (% of control), CellTiter-Blue; higher = more viable cells (about 100 = DMSO control)
- Stated Conditions: incubation time: 72 h
Quantity Kind: normalised viability
Write the numeric value and append its unit.

Below, each entry is followed by its recorded normalised viability result.
Molecule: NC(=O)c1cccc2cn(-c3ccc([C@@H]4CCCNC4)cc3)nc12 [MK-4827] (300 nM)
Measured Result: 101%
--
Molecule: CN1CCN(c2nc(C3=C(c4c[nH]c5ccccc45)C(=O)NC3=O)c3ccccc3n2)CC1 [Sotrastaurin] (300 nM)
Measured Result: 120%
--
Molecule: NC1(c2ccc(-c3nc4ccn5c(=O)[nH]nc5c4cc3-c3ccccc3)cc2)CCC1 [MK-2206] (30 nM)
Measured Result: 97.4%

Dear colleague, could you please provide normalised viability for the molecules listed below?
1. CC(C)C[C@H](NC(=O)[C@H](CCc1ccccc1)NC(=O)CN1CCOCC1)C(=O)N[C@@H](Cc1ccccc1)C(=O)N[C@@H](CC(C)C)C(=O)[C@@]1(C)CO1 [Carfilzomib] (30 nM)
2. CC/C(=C(\c1ccccc1)c1ccc(OCCN(C)C)cc1)c1ccccc1 [Tamoxifen] (300 nM)
3. CC[C@@H]1C(=O)N(C)c2cnc(Nc3ccc(C(=O)N[C@H]4CC[C@H](N5CCN(CC6CC6)CC5)CC4)cc3OC)nc2N1C(C)C [Volasertib] (30 nM)
4. O=C(c1cc(Cc2n[nH]c(=O)c3ccccc23)ccc1F)N1CCN(C(=O)C2CC2)CC1 [Olaparib] (300 nM)
5. Cc1cc2c(F)c(Oc3ncnn4cc(OC[C@@H](C)O)c(C)c34)ccc2[nH]1 [Brivanib] (30 nM)

# output
1. 40.8%
2. 112%
3. 25.4%
4. 85.3%
5. 92.6%

====

- System: Hs578T
- Method Notes: normalised response (% of control), CellTiter-Glo; higher = more viable cells (100 = DMSO, 0 = benzethonium chloride kill control)
- Stated Conditions: incubation time: 72 h
Criterion: normalised response meeting or surpassing 90%. Met: True. Not met: False.

Worked examples follow.
Compound: CC[C@@H]1C(=O)N(C)c2cnc(Nc3ccc(C(=O)N[C@H]4CC[C@H](N5CCN(CC6CC6)CC5)CC4)cc3OC)nc2N1C(C)C [Volasertib] (1000 nM)
Measured On: Hs578T
Answer Label: False

Compound: CC(C)NC[C@@H](C(=O)N1CCN(c2ncnc3c2[C@H](C)C[C@H]3O)CC1)c1ccc(Cl)cc1 [GDC-0068] (10000 nM)
Measured On: Hs578T
Answer Label: False

Compound: Nc1nc(Cl)nc2c1ncn2[C@@H]1O[C@H](CO)[C@@H](O)[C@@H]1F [Clofarabine] (10000 nM)
Measured On: Hs578T
Answer Label: False

# input Tell me whether normalised response is at least 90% here: Cc1cc2c(F)c(Oc3ncnn4cc(OC[C@@H](C)O)c(C)c34)ccc2[nH]1 [Brivanib] (1000 nM)
# output True

# input Reported normalised response reaches at least 90% for CCc1c(C(=O)C(N)=O)c2c(OCC(=O)O)cccc2n1Cc1ccccc1 [Varespladib] (10000 nM) ?
# output True

# input Hi, just wondering whether Cn1nnc2c(C(N)=O)ncn2c1=O [Temozolomide] (10000 nM) shows normalised response of 90% or higher.
# output True

====

- Test system: HCC1143
- Method Notes: normalised response (% of control), CellTiter-Glo; higher = more viable cells (100 = DMSO, 0 = benzethonium chloride kill control)
- Stated Conditions: incubation time: 72 h
Hi there, I'd appreciate the recorded normalised response for every entry that follows.
Answers are plain numbers, in %.

Reference set, count: 7
Compound: C[C@@H]1C[C@H]2[C@@H]3CCC4=CC(=O)C=C[C@]4(C)[C@@]3(F)[C@@H](O)C[C@]2(C)[C@@]1(O)C(=O)CO [Dexamethasone] (1000 nM)
Unit Tag: %
Measured Result: 97.6
--
Compound: Cn1nnc2c(C(N)=O)ncn2c1=O [Temozolomide] (10 nM)
Unit Tag: %
Measured Result: 98.5
--
Compound: Cn1nnc2c(C(N)=O)ncn2c1=O [Temozolomide] (1 nM)
Unit Tag: %
Measured Result: 95
--
Compound: Cn1cc(C[C@@H](N)C(=O)O)c2ccccc21 [1-methyl-D-tryptophan] (5 nM)
Unit Tag: %
Measured Result: 102
--
Compound: CC(C)n1nc(-c2ccc3oc(N)nc3c2)c2c(N)ncnc21 [INK128] (1 nM)
Unit Tag: %
Measured Result: 94.5
--
Compound: CC(C)n1nc(-c2ccc3oc(N)nc3c2)c2c(N)ncnc21 [INK128] (0.1 nM)
Unit Tag: %
Measured Result: 86.4
--
Compound: CCCc1cc(C)[nH]c(=O)c1CNC(=O)c1cc(-c2ccnc(N3CCN(C)CC3)c2)cc2c1cnn2C(C)C [GSK343] (10 nM)
Unit Tag: %
Measured Result: 104

Note: attention shifts to another entry.
Per the reported HCC1143 data, CC[C@H](CC#N)OC(=O)N[C@@H](C)c1cccc(NC(=O)Nc2ccc(-c3cnco3)c(OC)c2)c1 [AVN944] (1000 nM) has normalised response of 42.3

====

Would you kindly list normalised response for each of these compounds?
- System: MDA-MB-468
- Method Notes: normalised response (% of control), CellTiter-Glo; higher = more viable cells (100 = DMSO, 0 = benzethonium chloride kill control)
- Stated Conditions: incubation time: 72 h
Answers are plain numbers, in %.

Compound: COc1cc(Nc2ncc(F)c(Nc3ccc4c(n3)N(COP(=O)(O)O)C(=O)C(C)(C)O4)n2)cc(OC)c1OC [Fostamatinib] (0.25 nM)
Unit Tag: %
Measured Result: 97.4
//
Compound: CN1CCc2c(c3ccccc3n2Cc2ccc(C(=O)NO)cc2)C1 [Tubastatin A] (10 nM)
Unit Tag: %
Measured Result: 102
//
Compound: Cn1cc(C[C@@H](N)C(=O)O)c2ccccc21 [1-methyl-D-tryptophan] (5 nM)
Unit Tag: %
Measured Result: 98.3

Below are some compounds; for each one, tell me its normalised response.
1. Cc1cc2c(F)c(Oc3ncnn4cc(OC[C@@H](C)O)c(C)c34)ccc2[nH]1 [Brivanib] (100 nM)
2. CC/C(=C(\c1ccccc1)c1ccc(OCCN(C)C)cc1)c1ccccc1 [Tamoxifen] (1000 nM)
3. Cc1c(N)nc([C@H](CC(N)=O)NC[C@H](N)C(N)=O)nc1C(=O)N[C@H](C(=O)N[C@H](C)[C@@H](O)[C@H](C)C(=O)N[C@H](C(=O)NCCc1nc(-c2nc(C(=O)NCCC[S+](C)C)cs2)cs1)[C@@H](C)O)[C@@H](OC1OC(CO)C(O)C(O)C1OC1OC(CO)C(O)C(OC(N)=O)C1O)c1cnc[nH]1 (stereo partly specified) [Bleomycin] (1 nM)

# output
108
93.8
95.5

====

Please respond with reported normalised response for every item in the list.
- System: HDQ-P1
- Method Notes: normalised response (% of control), CellTox Green; higher = less cell death (100 = DMSO, 0 = benzethonium chloride kill control)
- Stated Conditions: incubation time: 72 h
One number for each entry, in %.

Below are worked cases with known answers.
Compound: O=C(O)CC[C@H]1CC[C@@](c2cc(F)ccc2F)(S(=O)(=O)c2ccc(Cl)cc2)CC1 [MK-0752] (10 nM)
Quantity Kind: normalised response
Measured Result: 105
//
Compound: COc1cc2c(Oc3ccc(NC(=O)C4(C(=O)Nc5ccc(F)cc5)CC4)cc3F)ccnc2cc1OCCCN1CCOCC1 [Foretinib] (100 nM)
Quantity Kind: normalised response
Measured Result: 109
//
Compound: COc1cc(Nc2ncc(F)c(Nc3ccc4c(n3)N(COP(=O)(O)O)C(=O)C(C)(C)O4)n2)cc(OC)c1OC [Fostamatinib] (25 nM)
Quantity Kind: normalised response
Measured Result: 104
//
Compound: Cn1nnc2c(C(N)=O)ncn2c1=O [Temozolomide] (100 nM)
Quantity Kind: normalised response
Measured Result: 81.8
//
Compound: Cn1cc(C[C@@H](N)C(=O)O)c2ccccc21 [1-methyl-D-tryptophan] (5000 nM)
Quantity Kind: normalised response
Measured Result: 60.4
//
Compound: CC[C@H](CC#N)OC(=O)N[C@@H](C)c1cccc(NC(=O)Nc2ccc(-c3cnco3)c(OC)c2)c1 [AVN944] (100 nM)
Quantity Kind: normalised response
Measured Result: 83.5

// each listed compound needs a value for normalised response
1. C[C@@H](C(=O)O)c1ccc(-c2ccccc2)c(F)c1 [Tarenflurbil] (100 nM)
2. CCc1cnn2c(NCc3ccc[n+]([O-])c3)cc(N3CCCC[C@H]3CCO)nc12 [Dinaciclib] (1000 nM)

# output
1. 93
2. 48.4

Your task in this section: give normalised response for each listed record.
1. C[C@]12C=CC(=O)C=C1CC[C@@H]1[C@@H]2C(=O)C[C@@]2(C)[C@H]1CC[C@]2(O)C(=O)CO [Prednisone] (10000 nM)
2. CC(C)C[C@H](NC(=O)[C@H](CCc1ccccc1)NC(=O)CN1CCOCC1)C(=O)N[C@@H](Cc1ccccc1)C(=O)N[C@@H](CC(C)C)C(=O)[C@@]1(C)CO1 [Carfilzomib] (10 nM)

# output
1: 114; 2: 96.5

Cc1c(C(=O)Nc2ccc(N3C[C@@H](C)O[C@@H](C)C3)nc2)cccc1-c1ccc(OC(F)(F)F)cc1 [Erismodegib] (10000 nM) has a reported normalised response of 111

Each recorded value in this set is attributed to the supplement of paper PMC4862054.
